experiment: Dose-escalating intravenous infusion study in male Beagle dogs (plasma PK); assay type: in vivo; settings: male, Beagle, dog, plasma, iv, 15 mg/kg, 15 mg/kg 4 h IV infusion, individual animals, read-out: Plasma BC-2059, 24 h
Metric: concentration at 24 h (µg/mL)
// note: answer is a bare numeric in µg/mL

Query: Look up concentration at 24 h: C[C@@H]1C[C@H](C)CN(S(=O)(=O)c2ccc3c(c2)C(=NO)c2cc(S(=O)(=O)N4C[C@H](C)C[C@H](C)C4)ccc2C3=NO)C1 [BC2059, tegavivint]
Response: 0.723

###

test: Dose-escalating intravenous infusion study in male Beagle dogs (plasma PK); type: in vivo; conditions: male, Beagle, dog, plasma, iv, 15 mg/kg, 15 mg/kg 4 h IV infusion, individual animals, read-out: Plasma BC-2059, 36 h
Metric: concentration at 36 h

Query: Look up concentration at 36 h: `C[C@@H]1C[C@H](C)CN(S(=O)(=O)c2ccc3c(c2)C(=NO)c2cc(S(=O)(=O)N4C[C@H](C)C[C@H](C)C4)ccc2C3=NO)C1`
Response: 674 ng/mL

Attribution: patent US12246010B2
